System: mesenchymal-like (M and MSL) TNBC cell lines
measurement protocol: Cell proliferation/viability assay (alamarBlue) and IC50 determination
Format: cell-based, human
conditions used: mesenchymal-like cell lines, 72 hours
Procedure: Cell proliferation/viability assays and IC50 determinations. All cell lines and culture conditions used can be found in Supplemental Methods (Table 5). Short tandem repeat (STR) DNA fingerprinting analysis was performed on all TNBC cell lines used in this study (Cell Line Genetics). […] Viability was determined from measuring fluorescent intensity after metabolic reduction of alamarBlue in the presence/absence of the drug after 72 hours. […]
measure: pIC50
// field semantics: pIC50 = negative decimal log of concentration (mol/L)

Give pIC50 for CO[C@H]1/C=C\C=C(/C)C(=O)NC2=CC(=O)C(NCCN(C)C)=C(C[C@@H](C)C[C@H](OC)[C@H](O)[C@@H](C)/C=C(\C)[C@@H]1OC(N)=O)C2=O [17-DMAG]
6.93
